tested on: Mus musculus; experiment: Analgesic activity against formalin-induced neurogenic pain in albino mouse assessed as time spent on paw licking at 1000 umol/kg, sc administered 20 mins before formalin challenge assessed for 30 mins at 5 mins intervals; assay type: functional
yes (1) means recorded Activity is 60% or above; no (0) means it is below 60%.

Problem: Please indicate if the recorded Activity for CC1=NN(C(N)=O)C(O)(C(F)(F)F)C1 (configuration not stated) meets or exceeds 60%.
Solution: no (0)

Problem: Textbook exercise: given the entry CCC1=NN(C(N)=O)C(O)(C(F)(F)F)C1 (configuration not stated) , state whether its Activity is greater than or equal to 60%.
Solution: yes (1)

Problem: Is it the case that NC(=O)N1N=C(c2ccc(Br)cc2)CC1(O)C(F)(F)F (configuration not stated) has Activity reaching or exceeding 60%?
Solution: no (0)

---
Problem: # check: Activity of NC(=O)N1N=CCC1(O)C(F)(F)F (configuration not stated) is greater than or equal to 60%
Solution: no (0)

Problem: Could you tell me if the measured Activity of NC(=O)N1N=C(c2ccccc2)CC1(O)C(F)(F)F (configuration not stated) reaches 60% or more?
Solution: no (0)

Problem: Has CC1C=NN(C(N)=O)C1(O)C(F)(F)F (configuration not stated) a recorded Activity greater than or equal to 60%?
Solution: yes (1)
